Molecular target: PKR K410E (Homo sapiens, UniProt P30613, K410E)
Sequence (P30613 whole entry K410E): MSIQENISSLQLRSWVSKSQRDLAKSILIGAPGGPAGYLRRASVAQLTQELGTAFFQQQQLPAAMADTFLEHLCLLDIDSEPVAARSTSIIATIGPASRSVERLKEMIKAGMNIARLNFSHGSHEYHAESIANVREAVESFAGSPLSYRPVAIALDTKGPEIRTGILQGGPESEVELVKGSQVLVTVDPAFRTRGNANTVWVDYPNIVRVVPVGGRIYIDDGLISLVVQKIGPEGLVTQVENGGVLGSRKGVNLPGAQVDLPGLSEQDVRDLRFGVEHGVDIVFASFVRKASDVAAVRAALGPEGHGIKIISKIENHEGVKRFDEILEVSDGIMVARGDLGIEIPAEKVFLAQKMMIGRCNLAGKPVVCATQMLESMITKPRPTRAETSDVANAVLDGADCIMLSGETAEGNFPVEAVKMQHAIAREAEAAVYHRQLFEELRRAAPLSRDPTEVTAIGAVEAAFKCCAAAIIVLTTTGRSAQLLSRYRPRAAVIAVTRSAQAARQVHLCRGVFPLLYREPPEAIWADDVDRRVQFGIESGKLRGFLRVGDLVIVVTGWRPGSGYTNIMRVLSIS
Experiment: PKR mutant assay (K410E), AC50, LDH/NADH-coupled, absorbance at 340 nm
Details: Table 4; AC50, enzyme assay
Reported EC50 values for the following molecules.

# MOLECULE, MEASURED
records = [
    ("Cn1c2nc(Cc3cc[nH]n3)sc2c2cnn(Cc3ccc4[nH]ncc4n3)c(=O)c21", "< 300 nM"),
    ("Cn1c2nc(Cc3cnc(N)s3)sc2c2cnn(Cc3cccc4[nH]ncc34)c(=O)c21", "301 to 800 nM"),
    ("Cn1c2nc(Cc3ncsc3Br)sc2c2cnn(Cc3cccc4[nH]ncc34)c(=O)c21", "< 300 nM"),
    ("Cn1c2nc(Cc3cscn3)sc2c2cnn(Cc3ccccc3)c(=O)c21", "< 300 nM"),
    ("Cn1c2nc(Cn3ccnc3)sc2c2cnn(Cc3cccc4[nH]ncc34)c(=O)c21", "301 to 800 nM"),
    ("Cn1c2nc(Cc3cc[nH]n3)sc2c2cnn(CCc3cccc(N)n3)c(=O)c21", "< 300 nM"),
    ("Cn1c2nc(Cc3c[nH]nn3)sc2c2cnn(Cc3ccccc3)c(=O)c21", "> 800 nM"),
    ("Cn1c2nc(Cc3n[nH]cc3Cl)sc2c2cnn(Cc3cccc4[nH]ncc34)c(=O)c21", "< 300 nM"),
    ("Cn1c2nc(Cc3cc[nH]n3)sc2c2cnn(Cc3ccccc3)c(=O)c21", "< 300 nM"),
    ("Cc1nc2c(s1)c1cnn(Cc3cccc(C(N)=O)c3)c(=O)c1n2C", "301 to 800 nM"),
]

## Input What value of EC50 has been recorded for this entry: Cn1c2nc(Oc3ccn[nH]3)sc2c2cnn(Cc3cccc(N)n3)c(=O)c21
## Output < 300 nM

## Input What value of EC50 has been recorded for this entry: Cn1c2nc(Cc3nccs3)sc2c2cnn(Cc3cccc4[nH]ncc34)c(=O)c21
## Output < 300 nM

====

Biological target: PKR R510Q (Homo sapiens, UniProt P30613, R510Q)
Sequence (P30613 whole entry R510Q): as the sequence (P30613 whole entry K410E) above, with E410K, R510Q counted along it
Assay: PKR mutant assay (R510Q), AC50, LDH/NADH-coupled, absorbance at 340 nm
Assay type: biochemical
Details: Table 2; enzyme assay; read-out: PK R510Q AC50
Reported AC50 values for the following molecules.

Use these answered entries as a reference point.
# MOLECULE, AC50
data = [
    ("COc1cccc(Cn2ncc3c4sc(C)nc4n(C)c3c2=O)n1", "301 to 800 nM"),
    ("COc1cccc(Cn2ncc3c4sc(CC5CCCCC5)nc4n(C)c3c2=O)c1", "> 800 nM"),
    ("Cn1c2nc(Cc3cccc4[nH]ncc34)sc2c2cnn(Cc3cccc4[nH]ncc34)c(=O)c21", "< 300 nM"),
    ("COc1cccc(Cn2ncc3c4sc(I)nc4n(C)c3c2=O)c1", "< 300 nM"),
    ("CC(c1ccccc1)c1nc2c(s1)c1cnn(Cc3cccc4[nH]ncc34)c(=O)c1n2C (centres unmarked)", "< 300 nM"),
]

## Input What value of AC50 has been recorded for this entry: Cc1nc2c(s1)c1cnn(Cc3cccc(F)c3)c(=O)c1n2C
## Output > 800 nM

## Input What value of AC50 has been recorded for this entry: COc1cccc(Cc2nc3c(s2)c2cnn(Cc4cccc5[nH]ncc45)c(=O)c2n3C)n1
## Output < 300 nM

## Input What value of AC50 has been recorded for this entry: COc1cccc(Cn2ncc3c4sc(C(C)O)nc4n(C)c3c2=O)c1 (centres unmarked)
## Output < 300 nM

## Input What value of AC50 has been recorded for this entry: Cn1c2nc(C(=O)NO)sc2c2cnn(Cc3cccc4[nH]ncc34)c(=O)c21
## Output 301 to 800 nM

## Input What value of AC50 has been recorded for this entry: Cn1c2nc([S+](C)[O-])sc2c2cnn(Cc3ccc4ccccc4n3)c(=O)c21 (centres unmarked)
## Output < 300 nM

## Input What value of AC50 has been recorded for this entry: Cn1c2nc(Cc3ccc4[nH]ncc4c3)sc2c2cnn(Cc3cccc4[nH]ncc34)c(=O)c21
## Output < 300 nM

## Input What value of AC50 has been recorded for this entry: COC(=O)Cc1nc2c(s1)c1cnn(Cc3cccc4[nH]ncc34)c(=O)c1n2C
## Output < 300 nM

## Input What value of AC50 has been recorded for this entry: CSc1nc2c(s1)c1cnn(Cc3cccc(S(N)(=O)=O)c3)c(=O)c1n2C
## Output > 800 nM

## Input What value of AC50 has been recorded for this entry: COc1cccc(Cn2ncc3c4sc(S(=O)(=O)c5ccccc5)nc4n(C)c3c2=O)c1
## Output 301 to 800 nM

====

Target: PKR R510Q (Homo sapiens, UniProt P30613, R510Q)
Assay: PKR mutant assay (R510Q), AC50, LDH/NADH-coupled, absorbance at 340 nm
Conditions: Table 4; AC50, enzyme assay; read-out: PK R510Q
OUTCOME_MEASURE: EC50

# MOLECULE, OUTCOME_MEASURE, MEASURED
measured = [
    ("Cn1c2nc(Cc3cc[nH]n3)sc2c2cnn(Cc3nccc4[nH]ncc34)c(=O)c21 [Compound 199]", "EC50", "< 300 nM"),
]

## Input What value of EC50 has been recorded for this entry: CC(c1cc[nH]n1)c1nc2c(s1)c1cnn(Cc3cccc4[nH]ncc34)c(=O)c1n2C (centres unmarked) [Compound 195]
## Output < 300 nM

## Input What value of EC50 has been recorded for this entry: Cn1c2nc(Cc3ccns3)sc2c2cnn(Cc3cccc4[nH]ncc34)c(=O)c21 [Compound 209]
## Output > 800 nM

## Input What value of EC50 has been recorded for this entry: COc1ncccc1Cc1nc2c(s1)c1cnn(Cc3cccc4[nH]ncc34)c(=O)c1n2C [Compound 219]
## Output < 300 nM

## Input What value of EC50 has been recorded for this entry: Cn1ccc(Cn2ncc3c4sc(CCc5cccnc5)nc4n(C)c3c2=O)n1 [Compound 406]
## Output > 800 nM

## Input What value of EC50 has been recorded for this entry: Cn1c2nc(C(C(N)=O)c3cc[nH]n3)sc2c2cnn(Cc3cccc4[nH]ncc34)c(=O)c21 (centres unmarked) [Compound 212]
## Output < 300 nM

## Input What value of EC50 has been recorded for this entry: Cn1c2nc(Cc3cc[nH]n3)sc2c2cnn(Cc3ccc4ccccc4c3)c(=O)c21 [Compound 210]
## Output < 300 nM

## Input What value of EC50 has been recorded for this entry: Cn1ncc2nc(Cn3ncc4c5sc(Cc6cc[nH]n6)nc5n(C)c4c3=O)ccc21 [Compound 288]
## Output < 300 nM

====

Reported pEC50 values for the following molecules.
Molecular target: UniProt P30613
Assay: PKR (wild type) enzyme AC50 assay, LDH/NADH-coupled, absorbance at 340 nm
Assay type: biochemical
Settings: Table 4; AC50, enzyme assay; read-out: PKR WT
pEC50: −log10 of the molar value.

Use these answered entries as a reference point.
# MOLECULE, OUTCOME_MEASURE, MEASURED
measured = [
    ("Cn1c2nc(Cc3c[nH]nn3)sc2c2cnn(Cc3cccc(OC(F)(F)F)c3)c(=O)c21 [Compound 290]", "pEC50", "> 6.52"),
    ("CC(c1cc[nH]n1)c1nc2c(s1)c1cnn(Cc3cccc4[nH]ncc34)c(=O)c1n2C (centres unmarked) [Compound 195]", "pEC50", "> 6.52"),
]

## Input What value of pEC50 has been recorded for this entry: Cn1c2nc(Cc3cccc(N)n3)sc2c2cnn(Cc3cccc4[nH]ncc34)c(=O)c21 [Compound 276]
## Output > 6.52

## Input What value of pEC50 has been recorded for this entry: Cn1c2nc(Cc3csc(C(N)=O)n3)sc2c2cnn(Cc3cccc4[nH]ncc34)c(=O)c21 [Compound 206]
## Output < 6.10

## Input What value of pEC50 has been recorded for this entry: Cn1c2nc(Cc3cc[nH]n3)sc2c2cnn(Cc3n[nH]c4ncccc34)c(=O)c21 [Compound 374]
## Output > 6.52

## Input What value of pEC50 has been recorded for this entry: Cn1c2nc(Cc3cc[nH]n3)sc2c2cnn(Cc3cccc4nn[nH]c34)c(=O)c21 [Compound 202]
## Output > 6.52

## Input What value of pEC50 has been recorded for this entry: Cn1c2nc(Cc3ncsc3Br)sc2c2cnn(Cc3cccc4[nH]ncc34)c(=O)c21 [Compound 220]
## Output > 6.52

====

Reported AC50 values for the following molecules.
Molecular target: PKR R510Q (Homo sapiens, UniProt P30613, R510Q)
Assay: PKR mutant assay (R510Q), AC50, LDH/NADH-coupled, absorbance at 340 nm
Format: biochemical
Conditions: Table 2; enzyme assay; read-out: PK R510Q AC50
Description: Example 11. PKR Mutant Assay PKR or PKR mutant enzyme solution was diluted into a reaction mix, which contains 1× buffer (100 mM KCl, 50 mM Tris pH 7.5, 5 mM MgCl2) as well as PEP (conc depends on enzyme), 180 μM NADH, 0.5 units LDH, 1 mM DTT, 0.03% BSA; final assay concentrations after 1.11 fold dilution are indicated. […] 20 uL ADP was added to start reaction at room temperature and reaction progress was measured as changes in absorbance at 340 nm wavelength at room temperature. […]

Use these answered entries as a reference point.
# MOLECULE, AC50
measured = [
    ("CNCc1nc2c(s1)c1cnn(Cc3cccc4[nH]ncc34)c(=O)c1n2C", "301 to 800 nM"),
    ("COc1cccc(Cn2ncc3c4sc(Cc5ccc(C#N)cc5)nc4n(C)c3c2=O)c1", "< 300 nM"),
    ("COc1cccc(Cn2ncc3c4sc(C(F)(F)F)nc4n(C)c3c2=O)c1", "< 300 nM"),
    ("Cn1c2nc(C(c3cccc4[nH]ncc34)S(=O)(=O)c3ccccc3)sc2c2cnn(Cc3cccc4[nH]ncc34)c(=O)c21 (centres unmarked)", "> 800 nM"),
    ("CSc1nc2c(s1)c1cnn(Cc3ccc(S(N)(=O)=O)cc3)c(=O)c1n2C", "> 800 nM"),
    ("Cn1c2nc(Cc3cc[nH]n3)sc2c2cnn(Cc3ccc4c(c3)OCCO4)c(=O)c21", "< 300 nM"),
    ("COC(=O)c1nc2c(s1)c1cnn(Cc3cccc(OC)c3)c(=O)c1n2C", "301 to 800 nM"),
    ("COc1cccc(Cn2ncc3c4sc(Sc5ccccc5)nc4n(C)c3c2=O)c1", "< 300 nM"),
    ("COC(=O)C(c1ccccc1)c1nc2c(s1)c1cnn(Cc3cccc4[nH]ncc34)c(=O)c1n2C (centres unmarked)", "301 to 800 nM"),
    ("Cn1c2nc(S(=O)(=O)Cc3ccccc3)sc2c2cnn(Cc3cccc4[nH]ncc34)c(=O)c21", "301 to 800 nM"),
]

## Input Form field: AC50 recorded for Cn1c2nc(Cc3cc[nH]n3)sc2c2cnn(Cc3cccc(C(N)=O)c3)c(=O)c21 with PKR R510Q (Homo sapiens, UniProt P30613, R510Q) (enter value)
## Output < 300 nM

## Input Form field: AC50 recorded for Cn1c2nc(CO)sc2c2cnn(Cc3cccc4[nH]ncc34)c(=O)c21 with PKR R510Q (Homo sapiens, UniProt P30613, R510Q) (enter value)
## Output < 300 nM

## Input Form field: AC50 recorded for Cc1nc2c(s1)c1cnn(Cc3ccc4cc[nH]c4c3)c(=O)c1n2C with PKR R510Q (Homo sapiens, UniProt P30613, R510Q) (enter value)
## Output < 300 nM
